experiment: NCI Yeast Anticancer Drug Screen. Data for the sgs1 mgt1 strain (AID 161);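 further: 0% = growth of cultures given vehicle only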; settings: S. cerevisiae sgs1 mgt1 strain, at 50.0 µM, hits give high values
This is part of a sample that, as a whole, favours compounds with a hit. Of some 79,000 tested, about 15% had one in any assay. The source made the active and inactive calls. No stated cut-off is given here; in the data, active means growth inhibition above about 70%; inactive means the rest.
MEASURED ATTRIBUTE: growth inhibition

CCOc1ccc2nc(N=NC(C(C)=O)C(C)=O)sc2c1: 1.3% (inactive)
CCCCCCCCCCCCCCCCS: 17.6% (inactive)
COc1ccc2c(=O)c(S)coc2c1: 22.3% (inactive)
N#CC(NNC(=O)Cc1ccccc1)c1c(O)ccc2ccccc12 (configuration not stated): 4.5% (inactive)
CCC(=O)/C=C/c1ccc(Cl)cc1: 7.75% (inactive)

Look up growth inhibition for the entries below, preserving their order.
1. Cc1[nH]c2ccccc2c1-c1cc(-c2cc(-c3c(C)[nH]c4ccccc34)nc(N)n2)nc(N)n1
2. CC(=O)CC(=O)NCCN(C)C

["-25.8% (inactive)", "-11.2% (inactive)"]

###

experiment: NCI Yeast Anticancer Drug Screen. Data for the sgs1 mgt1 strain (AID 161);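 further: 0% = growth of cultures given vehicle only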; settings: S. cerevisiae sgs1 mgt1 strain, at 50.0 µM, hits give high values
Compounds without any hit were thinned out: in the full panel of roughly 79,000, 15% have a hit.
MEASURED ATTRIBUTE: growth inhibition (%)
One number for each entry, in %.

O=C(O)c1cccc(Sc2ccccc2)c1: 8.25

Look up growth inhibition for the entries below, preserving their order.
1. NC(=S)NNC(=O)c1ccccc1
2. C/C=C/C(=O)N(CC)c1ccccc1
3. C1=CC(=P(c2ccccc2)(c2ccccc2)c2ccccc2)C=C1
4. OCCSCCCCCCSCCO
5. C/C(=C\c1ccccc1)C(=O)C1C(c2ccccc2)CC(=O)C(C)C1c1ccccc1 (centres undefined)
6. NC(=O)CNCc1ccccc1
7. Fc1ccc(C(Nc2nncs2)Nc2nncs2)c(F)c1
8. CC(=O)OCC1OC(n2nc(/C=C/c3ccco3)c(=O)n(-c3ccccc3)c2=S)C(OC(C)=O)C(OC(C)=O)C1OC(C)=O (centres undefined)

-2.25
10.8
10.4
5.85
-27.3
12.7
12.6
61

###

experiment: NCI Yeast Anticancer Drug Screen. Data for the bub3 strain (AID 167); settings: S. cerevisiae bub3 mutant strain, at 50.0 µM, hits give high values
About 79,000 compounds went through this panel and 15% of them were active in at least one assay; those are over-represented in the sample as a whole.
MEASURED ATTRIBUTE: growth inhibition (%)
One number for each entry, in %.

COc1ccc(/C=C2\CCC(CCN(C)C)(C3=CCCC3)C2=O)cc1 (stereo unspecified): -14.4
CCCCCCCCCCCCCCCC1=NN(c2ccccc2)C(=O)C1N=Nc1ccccc1 (stereo unspecified): -3.3
Cc1ccc(C)c(N2C(=O)C(=O)C(c3nc4ccccc4o3)/C(=N/N)C2=O)c1 (stereo unspecified): 5.25
O=c1n(-c2ccccc2)c(=O)n2c(-c3ccccc3)c(-c3ccccc3)n12: -23.6
NC(=O)CN1CC(C2=C(O)CN(CC(N)=O)C2=O)=CC1=O: -6.35

Look up growth inhibition for the entries below, preserving their order.
1. CC(O)c1cccc(NC(=O)Nc2ccc(Cl)c(Cl)c2)c1 (stereo unspecified)
2. CCC(C(O)C(C)C)[N+](=O)[O-] (stereo unspecified)
3. CSc1nc(=O)n(CCC#N)nc1SC
4. CCN(CC)CCNc1cccc(Cl)c1
5. O=C(Sc1ccccn1)c1ccccc1
6. CC1NC(C)SC(C)S1 (stereo unspecified)

1: 43.8; 2: 0.05; 3: 4.25; 4: 29.1; 5: -21.6; 6: -0.7

Look up growth inhibition for the entries below, preserving their order.
1. O=C1NC(=S)S/C1=C\c1ccncc1
2. NCCNc1ncnc2ccc(Cl)cc12

[0.05, -38.8]

Look up growth inhibition for the entries below, preserving their order.
1. CC1CN(c2ccc(Cl)cc2)CC(C)(C)OC(=O)O1 (stereo unspecified)
2. O=c1[nH]c(NCc2ccncc2)nc2nc[nH]c12
3. O=C(O)/C(Cc1ccnc2ccccc12)=N\O

1. 5.45
2. -21.1
3. -22.7
